# Tested on: HaCaT
# MEASUREMENT_NOTES: Cytotoxicity in human HaCaT cells assessed as reduction in cell viability at 100 uM incubated for 2 4 hrs by MTT assay
# Type: cell-based
READOUT_NAME: Activity

In the examples that follow, each entry is paired with its recorded Activity.
{"STRUCTURE": "CC(=O)c1c(O)c([C@@H]2O[C@H](CO)[C@@H](O)[C@H](O)[C@H]2O)c(O)c2c1O[C@@]1(C2)O[C@H](CO)[C@H](O)[C@@H]1O", "RESULT": "Non-Toxic"}
{"STRUCTURE": "CC(=O)c1c(O)c([C@@H]2O[C@H](CO)[C@@H](O)[C@H](O)[C@H]2O)c(O)c([C@@H]2O[C@H](CO)[C@@H](O)[C@H](O)[C@H]2O)c1O", "RESULT": "Non-Toxic"}
{"STRUCTURE": "COc1cc(/C=C/C(=O)OC[C@H]2O[C@@H](c3c(O)c(C(C)=O)c(O)c([C@@H]4O[C@H](COC(=O)/C=C/c5ccc(O)cc5)[C@@H](O)[C@H](O)[C@H]4O)c3O)[C@H](O)[C@@H](O)[C@@H]2O)ccc1O", "RESULT": "Toxic"}
{"STRUCTURE": "CC(=O)c1c(O)c([C@@H]2O[C@H](COC(=O)/C=C/c3ccc(O)cc3)[C@@H](O)[C@H](O)[C@H]2O)c(O)c([C@@H]2O[C@H](COC(=O)/C=C/c3ccc(O)cc3)[C@@H](O)[C@H](O)[C@H]2O)c1O", "RESULT": "Non-Toxic"}

Then this compound:
INPUT: Reported Activity for `CC(=O)c1c(O)c([C@@H]2O[C@H](CO)[C@@H](O)[C@H](O)[C@H]2O)c(O)c2c1O[C@]1(C2)O[C@H](CO)[C@@H](O)[C@H]1O` : what is it?
OUTPUT: Non-Toxic

====

# System: HaCaT
# MEASUREMENT_NOTES: Cytotoxicity in human HaCaT cells assessed as reduction in cell viability at 100 uM incubated for 2 4 hrs by MTT assay
# Type: cell-based

{"STRUCTURE": "CC(=O)c1c(O)c([C@@H]2O[C@H](CO)[C@@H](O)[C@H](O)[C@H]2O)c(O)c([C@@H]2O[C@H](COC(=O)c3ccccc3)[C@@H](O)[C@H](O)[C@H]2O)c1O", "SYSTEM_NAME": "HaCaT", "Activity": "Non-Toxic"}
{"STRUCTURE": "CC(=O)c1c(O)c([C@@H]2O[C@H](CO)[C@@H](O)[C@H](O)[C@H]2O)c(O)c2c1O[C@]1(C2)O[C@H](CO)[C@@H](O)[C@@H]1O", "SYSTEM_NAME": "HaCaT", "Activity": "Non-Toxic"}
{"STRUCTURE": "COc1cc(/C=C/C(=O)OC[C@H]2O[C@@H](c3c(O)c(C(C)=O)c(O)c([C@@H]4O[C@H](COC(=O)/C=C/c5ccc(O)c(OC)c5)[C@@H](O)[C@H](O)[C@H]4O)c3O)[C@H](O)[C@@H](O)[C@@H]2O)ccc1O", "SYSTEM_NAME": "HaCaT", "Activity": "Toxic"}
{"STRUCTURE": "CC(=O)c1c(O)c([C@@H]2O[C@H](CO)[C@@H](O)[C@H](O)[C@H]2O)c(O)c([C@@H]2O[C@H](COC(=O)[C@H]3[C@H](C(=O)OC[C@H]4O[C@@H](c5c(O)c(C(C)=O)c(O)c([C@@H]6O[C@H](CO)[C@@H](O)[C@H](O)[C@H]6O)c5O)[C@H](O)[C@@H](O)[C@@H]4O)[C@@H](c4ccc(O)cc4)[C@@H]3c3ccc(O)cc3)[C@@H](O)[C@H](O)[C@H]2O)c1O", "SYSTEM_NAME": "HaCaT", "Activity": "Non-Toxic"}
